Source of measurements: ChEMBL document CHEMBL1146308

- target-or-test-system: Acetylcholinesterase (Rattus norvegicus)
- Sequence (P37136 whole entry): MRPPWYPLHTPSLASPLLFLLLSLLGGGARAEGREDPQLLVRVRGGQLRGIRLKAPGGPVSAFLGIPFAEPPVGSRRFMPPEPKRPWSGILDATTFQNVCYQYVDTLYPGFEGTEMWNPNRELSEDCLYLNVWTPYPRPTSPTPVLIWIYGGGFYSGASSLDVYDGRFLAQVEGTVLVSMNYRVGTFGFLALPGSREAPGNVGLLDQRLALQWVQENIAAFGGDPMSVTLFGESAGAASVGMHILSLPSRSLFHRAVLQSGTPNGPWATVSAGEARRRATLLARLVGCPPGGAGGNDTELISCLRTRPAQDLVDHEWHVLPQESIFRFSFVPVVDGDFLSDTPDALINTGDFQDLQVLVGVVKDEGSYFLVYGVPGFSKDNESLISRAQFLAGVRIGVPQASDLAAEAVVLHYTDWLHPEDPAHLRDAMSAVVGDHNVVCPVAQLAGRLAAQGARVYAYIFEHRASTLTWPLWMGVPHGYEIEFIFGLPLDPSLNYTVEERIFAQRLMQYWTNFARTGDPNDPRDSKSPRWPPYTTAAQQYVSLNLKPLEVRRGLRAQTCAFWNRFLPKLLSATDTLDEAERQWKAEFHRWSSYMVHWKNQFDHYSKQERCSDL
Reported IC50 values follow for various compounds

>>> reported_result("CC1=C[C@H]2Cc3[nH]c(=O)ccc3[C@@]3(C1)[C@@H]2CCCN3C(=O)CN(C)CCCCCCCCCCCCN(C)Cc1ccccn1")
"65.8 nM"
>>> reported_result("CC1=C[C@H]2Cc3[nH]c(=O)ccc3[C@@]3(C1)[C@@H]2CCCN3C(=O)CN(C)CCCCCCN(C)CC(=O)N1CCC[C@@H]2[C@H]3C=C(C)C[C@]21c1ccc(=O)[nH]c1C3")
"76.2 nM"

Next item in the queue.
Q: Given CC1=C[C@H]2Cc3[nH]c(=O)ccc3[C@@]3(C1)[C@@H]2CCCN3C(=O)CCN1CCCN(CCC(=O)N2CCC[C@@H]3[C@H]4C=C(C)C[C@]32c2ccc(=O)[nH]c2C4)CC1 , report its IC50 on Acetylcholinesterase (Rattus norvegicus).
Ans: 179 nM

###

- target-or-test-system: Acetylcholinesterase (Rattus norvegicus)
Heads up, the class ranges for IC50 are lower (below 50 nM), middle (50 nM to below 200 nM), upper (200 nM or more)

Field: example entries. Status: answers known.
>>> assigned_label("CC1=C[C@H]2Cc3[nH]c(=O)ccc3[C@@]3(C1)[C@@H]2CCCN3CCN(C)CCCCCCN(C)CCN1CCC[C@@H]2[C@H]3C=C(C)C[C@]21c1ccc(=O)[nH]c1C3")
"middle"
>>> assigned_label("CC1=C[C@H]2Cc3[nH]c(=O)ccc3[C@@]3(C1)[C@@H]2CCCN3CCN1CCN(CN2CCC[C@@H]3[C@H]4C=C(C)C[C@]32c2ccc(=O)[nH]c2C4)CC1")
"upper"
>>> assigned_label("COc1ccccc1CN(C)CCCCCCCCCCCCN(C)CC(=O)N1CCC[C@@H]2[C@H]3C=C(C)C[C@]21c1ccc(=O)[nH]c1C3")
"middle"
>>> assigned_label("CC1=C[C@H]2Cc3[nH]c(=O)ccc3[C@@]3(C1)[C@@H]2CCCN3C(=O)CN(C)CCCCCCCCCCCCN(C)Cc1ccc(F)cc1")
"upper"
>>> assigned_label("CC1=C[C@H]2Cc3[nH]c(=O)ccc3[C@@]3(C1)[C@@H]2CCCN3CCN(C)CCCCCCCCN(C)CCN1CCC[C@@H]2[C@H]3C=C(C)C[C@]21c1ccc(=O)[nH]c1C3")
"lower"
>>> assigned_label("CC1=C[C@H]2Cc3[nH]c(=O)ccc3[C@@]3(C1)[C@@H]2CCCN3C(=O)CN(C)CCCN(C)CC(=O)N1CCC[C@@H]2[C@H]3C=C(C)C[C@]21c1ccc(=O)[nH]c1C3")
"upper"
>>> assigned_label("CC1=C[C@H]2Cc3[nH]c(=O)ccc3[C@@]3(C1)[C@@H]2CCCN3CCN(C)CCN(C)CCN1CCC[C@@H]2[C@H]3C=C(C)C[C@]21c1ccc(=O)[nH]c1C3")
"upper"
>>> assigned_label("CC1=C[C@H]2Cc3[nH]c(=O)ccc3[C@@]3(C1)[C@@H]2CCCN3C(=O)CN(C)CCCCCCCCCCN(C)Cc1ccc(F)cc1")
"middle"

Q: Determine which band this compound sits in: CC1=C[C@H]2Cc3[nH]c(=O)ccc3[C@@]3(C1)[C@@H]2CCCN3CCN(C)CCCN(C)CCN1CCC[C@@H]2[C@H]3C=C(C)C[C@]21c1ccc(=O)[nH]c1C3
Ans: upper

Q: Determine which band this compound sits in: CC1=C[C@H]2Cc3[nH]c(=O)ccc3[C@@]3(C1)[C@@H]2CCCN3C(=O)CN(C)CCCCCCN(C)Cc1cccc2ccccc12
Ans: middle

Q: Determine which band this compound sits in: CC1=C[C@H]2Cc3[nH]c(=O)ccc3[C@@]3(C1)[C@@H]2CCCN3CCCN(C)CCCCCCCCCCN(C)CCCN1CCC[C@@H]2[C@H]3C=C(C)C[C@]21c1ccc(=O)[nH]c1C3
Ans: lower
